target_desc: recombinant human GR (Homo sapiens, UniProt P04150)
Construct: purchased Panvera/Invitrogen P2812 (kit P2893)
test_name: Human Glucocorticoid Receptor (GR) Assay (fluorescence polarization, Panvera/Invitrogen kit)
Type: binding
measurement_setup: fluorescence polarization; GS Red tracer; 2 hours at room temperature; 100% control 10 μM Dexamethasone; read-out: Inhibition of GR binding, IC50
parameter_measured: pIC50
Give bare numbers, as −log10 of the molar value.

Would you mind giving pIC50 for every compound in the list below?
1. CCSCC(=O)[C@@]1(OC(C)=O)CC[C@H]2[C@@H]3CCC4=Cc5c(cnn5-c5ccc(F)cc5)C[C@]4(C)[C@H]3[C@@H](O)C[C@@]21C
2. CCC(=O)O[C@]1(C(=O)SC(C)C#N)CC[C@H]2[C@@H]3CCC4=Cc5c(cnn5-c5ccc(F)cc5)C[C@]4(C)[C@H]3[C@@H](O)C[C@@]21C (some centres unmarked)
3. C[C@]12Cc3cnn(-c4ccc(F)cc4)c3C=C1CC[C@H]1[C@@H]3CC[C@](OC(=O)C4CC4)(C(=O)SCF)[C@@]3(C)C[C@H](O)[C@@]12F
4. CC(=O)CSC(=O)[C@@]1(OC(=O)c2cocn2)CC[C@H]2[C@@H]3CCC4=Cc5c(cnn5-c5ccc(F)cc5)C[C@]4(C)[C@H]3[C@@H](O)C[C@@]21C
5. C[C@]12Cc3cnn(-c4ccc(F)nc4)c3C=C1CC[C@@H]1[C@@H]2[C@@H](O)C[C@@]2(C)[C@H]1CC[C@]2(O)C(=O)SCC#N

Found:
[8.39, 8.24, 7.85, 8.41, 8.85]

====

target_desc: recombinant human GR (Homo sapiens, UniProt P04150)
Construct: purchased Panvera/Invitrogen P2812 (kit P2893)
test_name: Human Glucocorticoid Receptor (GR) Assay (fluorescence polarization, Panvera/Invitrogen kit)
Type: binding
measurement_setup: fluorescence polarization; GS Red tracer; 2 hours at room temperature; 100% control 10 μM Dexamethasone; read-out: Inhibition of GR binding, IC50
parameter_measured: pIC50
One number for each entry, as −log10 of the molar value.

Sample answers from the record:
{"columns": ["molecule", "target_desc", "pIC50"],
 "data": [
  ["CSSCC(=O)[C@@]1(OC(C)=O)CC[C@H]2[C@@H]3CCC4=Cc5c(cnn5-c5ccc(F)cc5)C[C@]4(C)[C@H]3[C@@H](O)C[C@@]21C", "recombinant human GR (Homo sapiens, UniProt P04150)", 8.54],
  ["C[C@]12Cc3cnn(-c4ccc(F)cc4)c3C=C1CC[C@@H]1[C@@H]2[C@@H](O)C[C@@]2(C)[C@H]1CC[C@]2(OC(=O)[C@H]1CCCO1)C(=O)SCC#N (single isomer, unassigned)", "recombinant human GR (Homo sapiens, UniProt P04150)", 8.42],
  ["C[C@]12Cc3cnn(-c4ccc(F)cc4)c3C=C1CC[C@@H]1[C@@H]2[C@@H](O)C[C@@]2(C)[C@H]1CC[C@]2(OC(=O)c1ccco1)C(=O)SCF", "recombinant human GR (Homo sapiens, UniProt P04150)", 8.33],
  ["C[C@]12Cc3cnn(-c4ccc(F)cc4)c3C=C1CC[C@@H]1[C@@H]2[C@@H](O)C[C@@]2(C)[C@H]1CC[C@]2(OC(=O)c1cocn1)C(=O)SCC#N", "recombinant human GR (Homo sapiens, UniProt P04150)", 8.57],
  ["CCC(=O)O[C@]1(C(=O)SCF)CC[C@H]2[C@@H]3CCC4=Cc5c(cnn5-c5ccc(F)nc5)C[C@]4(C)[C@@]3(F)[C@@H](O)C[C@@]21C", "recombinant human GR (Homo sapiens, UniProt P04150)", 8.48],
  ["CSC(=O)[C@@]1(OC(=O)c2cocn2)CC[C@H]2[C@@H]3CCC4=Cc5c(cnn5-c5ccc(F)nc5)C[C@]4(C)[C@H]3[C@@H](O)C[C@@]21C", "recombinant human GR (Homo sapiens, UniProt P04150)", 8.89],
  ["CCOC(=O)O[C@]1(C(=O)SCC#N)CC[C@H]2[C@@H]3CCC4=Cc5c(cnn5-c5ccc(F)cc5)C[C@]4(C)[C@H]3[C@@H](O)C[C@@]21C", "recombinant human GR (Homo sapiens, UniProt P04150)", 7.42],
  ["Cc1ccoc1C(=O)O[C@]1(C(=O)SCC#N)CC[C@H]2[C@@H]3CCC4=Cc5c(cnn5-c5ccc(F)cc5)C[C@]4(C)[C@H]3[C@@H](O)C[C@@]21C", "recombinant human GR (Homo sapiens, UniProt P04150)", 8.19],
  ["C[C@]12Cc3cnn(-c4ccc(F)cc4)c3C=C1CC[C@H]1[C@@H]3CC[C@](OC(=O)c4cocn4)(C(=O)SCC#N)[C@@]3(C)C[C@H](O)[C@@]12F", "recombinant human GR (Homo sapiens, UniProt P04150)", 8.28]
]}

Next molecule, pIC50 to be filled in.
Lookup: Report pIC50 for `C[C@]12Cc3cnn(-c4ccc(F)cc4)c3C=C1CC[C@@H]1[C@@H]2[C@@H](O)C[C@@]2(C)[C@H]1CC[C@]2(OC(=O)c1nccs1)C(=O)SCC#N` please.
Found: 8.48

====

target_desc: recombinant human GR (Homo sapiens)
Construct: purchased Panvera/Invitrogen P2812 (kit P2893)
Sequence (P04150 1-777): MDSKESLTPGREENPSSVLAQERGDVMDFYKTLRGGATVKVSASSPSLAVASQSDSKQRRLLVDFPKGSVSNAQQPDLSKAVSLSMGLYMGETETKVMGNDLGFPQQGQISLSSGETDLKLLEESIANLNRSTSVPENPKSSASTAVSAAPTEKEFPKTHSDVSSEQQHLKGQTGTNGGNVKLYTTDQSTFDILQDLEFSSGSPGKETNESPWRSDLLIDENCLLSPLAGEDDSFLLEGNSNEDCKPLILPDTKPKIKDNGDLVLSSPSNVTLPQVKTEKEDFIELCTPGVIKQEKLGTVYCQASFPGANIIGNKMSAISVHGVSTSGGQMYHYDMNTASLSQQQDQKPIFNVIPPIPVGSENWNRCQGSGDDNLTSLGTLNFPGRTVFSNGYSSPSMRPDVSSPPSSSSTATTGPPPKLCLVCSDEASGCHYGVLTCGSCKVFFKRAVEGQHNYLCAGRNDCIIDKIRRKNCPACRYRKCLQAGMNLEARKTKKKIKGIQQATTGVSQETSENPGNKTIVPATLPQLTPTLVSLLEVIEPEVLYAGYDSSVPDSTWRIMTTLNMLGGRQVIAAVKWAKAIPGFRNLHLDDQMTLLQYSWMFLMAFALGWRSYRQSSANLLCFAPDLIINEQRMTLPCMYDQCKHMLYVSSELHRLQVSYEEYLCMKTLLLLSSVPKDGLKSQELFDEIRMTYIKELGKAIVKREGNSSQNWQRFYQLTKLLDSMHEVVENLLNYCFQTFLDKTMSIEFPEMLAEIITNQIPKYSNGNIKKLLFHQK
test_name: Human Glucocorticoid Receptor (GR) Assay (fluorescence polarization, Panvera/Invitrogen kit)
Format: binding
measurement_setup: fluorescence polarization; GS Red tracer; 2 hours at room temperature; 100% control 10 μM Dexamethasone; read-out: Inhibition of GR binding, IC50
pIC50: −log10 of the molar value.
Output condition met for pIC50 not less than 8; output condition not met otherwise.

Examples from the recorded data:
{"columns": ["compound", "target_desc", "assigned_category"],
 "data": [
  ["C[C@]12Cc3cnn(-c4ccc(Cl)cn4)c3C=C1CC[C@@H]1[C@@H]2[C@@H](O)C[C@@]2(C)[C@H]1CC[C@]2(OC(=O)C1CC1)C(=O)SCF [Example 150]", "recombinant human GR (Homo sapiens)", "condition not met"],
  ["C[C@]12Cc3cnn(-c4ccc(F)nc4)c3C=C1CC[C@@H]1[C@@H]2[C@@H](O)C[C@@]2(C)[C@H]1CC[C@]2(OC(=O)[C@H]1CCCO1)C(=O)SCF [Example 187]", "recombinant human GR (Homo sapiens)", "condition met"],
  ["CCC(=O)O[C@]1(C(=O)SCOC)CC[C@H]2[C@@H]3CCC4=Cc5c(cnn5-c5ccc(F)cc5)C[C@]4(C)[C@H]3[C@@H](O)C[C@@]21C [Example 14]", "recombinant human GR (Homo sapiens)", "condition met"]
]}

Lookup: Can C[C@]12Cc3cnn(-c4ccc(F)cc4)c3C=C1CC[C@H]1[C@@H]3CC[C@](OC(=O)c4ccco4)(C(=O)SCF)[C@@]3(C)C[C@H](O)[C@@]12F [Example 194] be said to have pIC50 at or above 8?
Found: condition met

Lookup: Can C[C@]12Cc3cnn(-c4ccc(F)cc4)c3C=C1CC[C@@H]1[C@@H]2[C@@H](O)C[C@@]2(C)[C@H]1CC[C@]2(OC(=O)C1CC1)C(=O)SCF [Example 38] be said to have pIC50 at or above 8?
Found: condition met

====

target_desc: recombinant human GR (Homo sapiens)
Construct: purchased Panvera/Invitrogen P2812 (kit P2893)
Sequence (P04150 1-777): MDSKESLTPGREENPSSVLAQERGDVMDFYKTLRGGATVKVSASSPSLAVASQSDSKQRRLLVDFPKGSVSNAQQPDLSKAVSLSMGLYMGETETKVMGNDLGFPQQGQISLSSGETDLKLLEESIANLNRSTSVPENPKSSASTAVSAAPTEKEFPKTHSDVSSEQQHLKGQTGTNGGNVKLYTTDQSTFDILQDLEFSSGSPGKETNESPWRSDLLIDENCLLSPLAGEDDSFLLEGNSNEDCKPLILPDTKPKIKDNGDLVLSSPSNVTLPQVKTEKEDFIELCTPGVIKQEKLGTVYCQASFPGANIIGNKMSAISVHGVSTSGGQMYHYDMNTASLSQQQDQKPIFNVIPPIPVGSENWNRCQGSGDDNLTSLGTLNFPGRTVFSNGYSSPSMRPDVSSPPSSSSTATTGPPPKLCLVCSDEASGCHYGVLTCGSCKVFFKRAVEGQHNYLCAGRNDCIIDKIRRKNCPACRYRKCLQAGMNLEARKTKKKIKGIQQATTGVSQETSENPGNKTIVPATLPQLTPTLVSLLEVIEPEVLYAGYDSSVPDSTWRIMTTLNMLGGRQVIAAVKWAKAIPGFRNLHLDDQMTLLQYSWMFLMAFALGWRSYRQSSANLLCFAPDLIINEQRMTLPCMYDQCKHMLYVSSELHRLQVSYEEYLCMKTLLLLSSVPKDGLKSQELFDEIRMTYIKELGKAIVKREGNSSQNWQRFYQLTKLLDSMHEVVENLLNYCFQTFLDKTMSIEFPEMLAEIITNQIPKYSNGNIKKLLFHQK
test_name: Human Glucocorticoid Receptor (GR) Assay (fluorescence polarization, Panvera/Invitrogen kit)
Assay type: binding
measurement_setup: fluorescence polarization; GS Red tracer; 2 hours at room temperature; 100% control 10 μM Dexamethasone; read-out: Inhibition of GR binding, IC50
parameter_measured: pIC50
Give bare numbers, as −log10 of the molar value.

Sample answers from the record:
{"columns": ["cpd_smiles", "pIC50"],
 "data": [
  ["CC(=O)O[C@]1(C(=O)CO)CC[C@H]2[C@@H]3CCC4=Cc5c(cnn5-c5ccc(F)cc5)C[C@]4(C)[C@H]3[C@@H](O)C[C@@]21C", 8.89],
  ["C[C@]12Cc3cnn(-c4ccc(F)cc4)c3C=C1CC[C@@H]1[C@@H]2[C@@H](O)C[C@@]2(C)[C@H]1CC[C@]2(OC(=O)C1CCOCC1)C(=O)SCCO", 8.43],
  ["C[C@]12Cc3cnn(-c4ccc(F)cc4)c3C=C1CC[C@@H]1[C@@H]2[C@@H](O)C[C@@]2(C)[C@H]1CC[C@]2(OC(=O)c1ccco1)C(=O)SCCCC#N", 8.46],
  ["COCSC(=O)[C@@]1(OC(=O)C2CC2)CC[C@H]2[C@@H]3CCC4=Cc5c(cnn5-c5ccc(F)nc5)C[C@]4(C)[C@H]3[C@@H](O)C[C@@]21C", 8.23]
]}

Lookup: Report pIC50 for `Cc1occc1C(=O)O[C@]1(C(=O)SCF)CC[C@H]2[C@@H]3CCC4=Cc5c(cnn5-c5ccc(F)cc5)C[C@]4(C)[C@H]3[C@@H](O)C[C@@]21C` please.
Found: 8.14
